Tested on: A10-Zellen
Assay: Activity on vascular tissue (A10 cells)
Type: cell-based
Conditions: listed as (-)-Enantiomer, read-out: IC₅₀
pIC50: −log10 of the molar value.

| compound | pIC50 |
| --- | --- |
| CCOc1ccccc1NC(=C[N+](=O)[O-])NC(C)C(C)(C)C (single isomer, unassigned; (-)) [Beispiel 1] | 6.60 |

---

System: Neuronen
Experiment: Effect (hyperpolarising activity) on neurons
Format: cell-based, Ratten
Conditions: Neuron; in neurons; read-out: EC₅₀-Wert
pEC50: −log10 of the molar value.
measure_name: pEC50

| compound | reported_measurement |
| --- | --- |
| CCOc1ccccc1NC(=C[N+](=O)[O-])NC(C)C(C)(C)C (single isomer, unassigned; (+)) [Beispiel 2] | 6.30 |
